target: MKK4 (Homo sapiens); assay: KINOMEscan competition binding assay, MKK4; settings: read-out: Potency MKK4 (derived from % of control values, PoC)
Sequence (P45985 84-399): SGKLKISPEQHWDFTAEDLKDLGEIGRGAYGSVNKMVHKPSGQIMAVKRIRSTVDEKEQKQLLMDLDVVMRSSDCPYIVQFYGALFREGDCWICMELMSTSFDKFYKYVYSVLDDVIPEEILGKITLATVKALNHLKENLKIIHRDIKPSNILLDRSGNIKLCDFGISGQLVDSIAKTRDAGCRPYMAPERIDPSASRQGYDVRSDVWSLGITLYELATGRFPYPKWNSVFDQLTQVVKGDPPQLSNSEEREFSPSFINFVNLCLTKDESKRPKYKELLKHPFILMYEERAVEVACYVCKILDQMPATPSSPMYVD
Recorded remaining binding at 0.1 µM for the following compounds
quantity_kind: remaining binding at 0.1 µM

smiles_data=CCCCS(=O)(=O)Nc1cccc(C(=O)c2c[nH]c3ncc(-c4ccc5c(c4)OCCO5)cc23)c1F result="< 10%"
smiles_data=CCCS(=O)(=O)Nc1ccc(F)c(C(=O)c2c[nH]c3ncc(-c4ccc(OCOC)cc4Cl)cc23)c1F result="< 10%"
smiles_data=CC(C)c1ccc(-c2cnc3[nH]cc(C(=O)c4cccc(NS(C)(=O)=O)c4F)c3c2)cc1 result="> 30%"
smiles_data=COc1ccc(-c2cnc3[nH]cc(C(=O)c4cccc(NS(C)(=O)=O)c4F)c3c2)c(Cl)c1 result="< 10%"
smiles_data=CCCS(=O)(=O)Nc1ccc(F)c(C(=O)c2c[nH]c3ncc(-c4cccc(C#N)c4)cc23)c1F result="10 to 30%"
smiles_data=CS(=O)(=O)Nc1cccc(C(=O)c2c[nH]c3ncc(-c4cc5c(cc4Cl)OCO5)cc23)c1F result="< 10%"
smiles_data=CCCOc1ccc(-c2cnc3[nH]cc(C(=O)c4c(F)ccc(NS(=O)(=O)CCC)c4F)c3c2)c(Cl)c1 result="10 to 30%"
smiles_data=CCCS(=O)(=O)Nc1ccc(F)c(C(=O)c2c[nH]c3ncc(-c4ccc(Cl)cc4Cl)cc23)c1F result="> 30%"
smiles_data=CS(=O)(=O)Nc1cccc(C(=O)c2c[nH]c3ncc(-c4ccccc4Cl)cc23)c1F result="10 to 30%"
smiles_data=CCCCS(=O)(=O)Nc1cccc(C(=O)c2c[nH]c3ncc(-c4ccc(OC)cc4Cl)cc23)c1F result="< 10%"
smiles_data=CCCS(=O)(=O)Nc1cccc(C(=O)c2c[nH]c3ncc(-c4ccc(Cl)cc4)cc23)c1C result="> 30%"
smiles_data=CCCS(=O)(=O)Nc1ccc(F)c(C(=O)c2c[nH]c3ncc(-c4ccc(F)cc4C)cc23)c1F result="10 to 30%"
smiles_data=CCCS(=O)(=O)Nc1ccc(F)c(C(=O)c2c[nH]c3ncc(-c4cccc5ccccc45)cc23)c1F result="> 30%"
smiles_data=CCCS(=O)(=O)Nc1ccc(F)c(C(=O)c2c[nH]c3ncc(-c4ccc(OC5CCCC5)cc4Cl)cc23)c1F result="> 30%"
smiles_data=CCCS(=O)(=O)Nc1ccc(F)c(C(=O)c2c[nH]c3ncc(-c4cnc5ccccc5c4)cc23)c1F result="> 30%"

* * *

pIC50: −log10 of the molar value.
This document collects pIC50 values reported for MKK4 active (Homo sapiens).
quantity_kind: pIC50

compound="CC(C)c1ccc(-c2cnc3[nH]cc(C(=O)c4cccc(NS(C)(=O)=O)c4F)c3c2)cc1 [Example 45]" result="5.00 to 6.00"
compound="CCCS(=O)(=O)Nc1ccc(F)c(C(=O)c2c[nH]c3ncc(-c4ccc(F)cc4C)cc23)c1F [Example 12]" result="6.00 to 6.30"
compound="CCCS(=O)(=O)Nc1ccc(F)c(C(=O)c2c[nH]c3ncc(-c4ccc(Cl)cc4)cc23)c1Cl [Example 86]" result="5.00 to 6.00"
compound="CCCCS(=O)(=O)Nc1cccc(C(=O)c2c[nH]c3ncc(-c4ccc(OC)cc4Cl)cc23)c1F [Example 52]" result="> 6.30"
compound="CS(=O)(=O)Nc1cccc(C(=O)c2c[nH]c3ncc(-c4cc5c(cc4Cl)OCCO5)cc23)c1F [Example 48]" result="5.00 to 6.00"
compound="CS(=O)(=O)Nc1cccc(C(=O)c2c[nH]c3ncc(-c4cc5c(cc4Cl)OCO5)cc23)c1F [Example 47]" result="> 6.30"
compound="CCCS(=O)(=O)Nc1ccc(F)c(C(=O)c2c[nH]c3ncc(-c4cc5c(cc4Cl)OCO5)cc23)c1F [Example 43]" result="> 6.30"
compound="CCCS(=O)(=O)Nc1ccc(F)c(C(=O)c2c[nH]c3ncc(-c4ccc5c(c4)OCO5)cc23)c1F [Example 10]" result="< 5.00"
compound="CCCCS(=O)(=O)Nc1cccc(C(=O)c2c[nH]c3ncc(-c4ccc(Cl)cc4)cc23)c1F [Example 50]" result="> 6.30"

Source of measurements: patent US11040027B2
